assayName: Treatment of IR dye with oxidative and reducing reagents to degrade the dye (TABLE I)
Assay type: physicochemical
measurementType: Change Noticed

Consider the worked cases shown below.
INSERT INTO assay_data (molecule, measurementtype, observedmeasurement) VALUES
  ('O=S(=O)([O-])OOS(=O)(=O)[O-].[K+].[K+] [Potassium persulfate]', 'Change Noticed', 'Brown'),
  ('O=C([O-])c1ccccc1.[Cu+] [Cu(I) benzoate]', 'Change Noticed', 'Dye bleached pink'),
  ('[O-][Cl+3]([O-])([O-])O', 'Change Noticed', 'Dye bleached pink'),
  ('O=C1CCC(=O)N1Br [N-Bromo-succinimide]', 'Change Noticed', 'Dye bleached pink');

Please look at the following molecule next.
Ask: So what's the measured Change Noticed for this one? O=[N+]([O-])[O-].O=[N+]([O-])[O-].O=[N+]([O-])[O-].O=[N+]([O-])[O-].O=[N+]([O-])[O-].O=[N+]([O-])[O-].[Ce+4].[NH4+].[NH4+] [Ceric ammonium nitrate]
Result: Dye bleached pink
